- subject.of.test: HLA-A*69:01
- test.protocol: IEDB peptide-MHC binding, purified MHC/competitive/fluorescence; filed as Kd, often an IC50 or EC50 that approximates it; bounds were set here for any values at or beyond the usual limits of such assays
- settings: source organism: Reston ebolavirus - Reston (1989)
value.kind: Kd

   construct_sequence  subject_of_test  measured_result
0           GRYNLVPPK      HLA-A*69:01          ≥ 20 µM

----------
- subject.of.test: HLA-A*11:01
- test.protocol: IEDB peptide-MHC binding, purified MHC/direct/fluorescence; filed as Kd, often an IC50 or EC50 that approximates it; bounds were set here for any values at or beyond the usual limits of such assays
- settings: source organism: Pseudomonas fluorescens
value.kind: Kd

>>> df
   construct_sequence  subject_of_test  measured_result
0           FVSVYFSDY      HLA-A*11:01          ≥ 20 µM

----------
- subject.of.test: HLA-A*24:03
- test.protocol: IEDB peptide-MHC binding, purified MHC/direct/fluorescence; filed as Kd, often an IC50 or EC50 that approximates it; bounds were set here for any values at or beyond the usual limits of such assays
- settings: source organism: Tai Forest virus - Cote d'Ivoire, Cote d'Ivoire, 1994
value.kind: Kd (nM)

   construct_sequence  subject_of_test  measured_result
0           WFQRIPLQW      HLA-A*24:03              0.3

----------
Kd for assorted sequences
- subject.of.test: HLA-B*51:01
- test.protocol: IEDB peptide-MHC binding, purified MHC/competitive/radioactivity; filed as Kd, often an IC50 or EC50 that approximates it; bounds were set here for any values at or beyond the usual limits of such assays
- settings: source organism: Dengue virus 2 Jamaica/1409/1983
value.kind: Kd

In [3]: df
Out[3]:
   construct_sequence  measured_result
0          QPHWIAASII           468 nM
1          FKLTYQNKVV       ≥ 60000 nM
2           YAQIQPHWI          1080 nM

----------
- subject.of.test: HLA-A*68:02
- test.protocol: IEDB peptide-MHC binding, purified MHC/direct/fluorescence; filed as Kd, often an IC50 or EC50 that approximates it; bounds were set here for any values at or beyond the usual limits of such assays
- settings: source organism: Reston ebolavirus
value.kind: Kd

   construct_sequence  subject_of_test  measured_result
0           WFQRIPLQW      HLA-A*68:02          ≥ 20 µM

----------
- subject.of.test: HLA-A*02:17
- test.protocol: IEDB peptide-MHC binding, purified MHC/competitive/radioactivity; filed as Kd, often an IC50 or EC50 that approximates it; bounds were set here for any values at or beyond the usual limits of such assays
- settings: source organism: Dengue virus 4 Dominica/814669/1981
value.kind: Kd

   construct_sequence  measured_result
0          TLATGPILTL           687 nM

----------
- subject.of.test: HLA-B*40:01
- test.protocol: IEDB peptide-MHC binding, purified MHC/direct/fluorescence; filed as Kd, often an IC50 or EC50 that approximates it; bounds were set here for any values at or beyond the usual limits of such assays
- settings: source organism: Listeria monocytogenes
value.kind: Kd

   construct_sequence  subject_of_test  measured_result
0           EIEIEKNKK      HLA-B*40:01          ≥ 20 µM

Reference source: the Immune Epitope Database (IEDB)
